Test system: rabbit vWF A1 domain (SEQ ID NO 6)
Sequence (as listed by the source): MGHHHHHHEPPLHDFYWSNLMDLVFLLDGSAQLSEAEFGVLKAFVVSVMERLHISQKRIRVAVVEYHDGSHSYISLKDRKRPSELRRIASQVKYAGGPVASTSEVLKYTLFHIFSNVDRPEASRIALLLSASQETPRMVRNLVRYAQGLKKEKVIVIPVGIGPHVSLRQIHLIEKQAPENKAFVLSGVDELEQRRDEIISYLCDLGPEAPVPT
test-name: 3-point dot blot screen, rabbit vWF A1 domain
Type: binding
conditions-used: 3-point dot blot screen, 20 nM rabbit vWF A1 domain; ratio of fraction of aptamer bound with target protein to fraction bound without protein
Description: When a significant positive ratio of binding of RNA in the presence of human or rabbit vWF A1 domain versus in the absence of protein was seen, the pools were cloned using the TOPO TA cloning kit (Invitrogen, Cat. #45-0641, Carlsbad, Calif.) according to the manufacturer's instructions. Round 9 and 12 pool templates were cloned and sequenced (125 total sequences), producing 48 unique clones. […]
Reported values of Screen Rabbit/No Protein for individual entries
# respond with the number and nothing more

molecule: AMX238.A12: DNA SELEX 2 aptamer clone (nucleic acid, DNA, backbone not given here, DNA SELEX 2 aptamer clone) DNA: CTACCTACGATCTGACTAGCCAGTTCTGGGAAAAATTATTTTTTTATTTCGATCGTATATGCTTACTCTCATGTAGTTCC
Screen Rabbit/No Protein: 0.99
//
molecule: AMX238.G6: DNA SELEX 2 aptamer clone (nucleic acid, DNA, backbone not given here, DNA SELEX 2 aptamer clone) DNA: CTACCTACGATCTGACTAGCTCCAGTGTTTTATCCAATAACCGTGCGGGGCCTCCGTGATGCTTACTCTCATGTAGTTCC
Screen Rabbit/No Protein: 1.22
//
molecule: AMX237.C5: DNA SELEX 2 aptamer clone (nucleic acid, DNA, backbone not given here, DNA SELEX 2 aptamer clone) DNA: CTACCTACGATCTGACTAGCGTGCAGTGCCTATCTCAGGCCGTGCGGTATCCTCCGTCACGCTTACTCTCATGTAGTTCC
Screen Rabbit/No Protein: 2.36
//
molecule: AMX238.D8: DNA SELEX 2 aptamer clone (nucleic acid, DNA, backbone not given here, DNA SELEX 2 aptamer clone) DNA: CTACCTACGATCTGACTAGCTCCAGTGTTTTATCCAACAACCGTGCGGTGCCTCCGTGAGCTTACTCTCATGTAGTTCC
Screen Rabbit/No Protein: 1.97
//
molecule: AMX238.F7: DNA SELEX 2 aptamer clone (nucleic acid, DNA, backbone not given here, DNA SELEX 2 aptamer clone) DNA: CTACCTACGATCTGACTAGCAAGGGGATTGGCTCCGGGTCTGGCGTGCTTGGCATCTTTGGCTTACTCTCATGTAGTTCC
Screen Rabbit/No Protein: 1.88

Sample AMX237.F1: DNA SELEX 2 aptamer clone (nucleic acid, DNA, backbone not given here, DNA SELEX 2 aptamer clone) DNA: CTACCTACGATCTGACTAGCTTTCAGTCTTCCACGTTTATAGGGTTTGGCATTGGGTCTGGCTTACTCTCATGTAGTTCC — what was its Screen Rabbit/No Protein?
1.22

Param item = AMX237.F5: DNA SELEX 2 aptamer clone (nucleic acid, DNA, backbone not given here, DNA SELEX 2 aptamer clone) DNA: CTACCTACGATCTGACTAGCTTTTAGTCTTCCACATTTATAGGGTTTGGCATTGGGTCTGGCTTACTCTCATGTAGTTCC ; retrieve measured Screen Rabbit/No Protein.
1.22

What value of measured Screen Rabbit/No Protein is listed for AMX236.H2: DNA SELEX 2 aptamer clone (nucleic acid, DNA, backbone not given here, DNA SELEX 2 aptamer clone) CTACCTACGATCTGACTAGCGTGCAGTGCCTATCCCAGGCCGTGCGGTAGCCTCCGTCACGCTTACTCTCATGTAGTTCC ?
2.06

Given AMX237.H8: DNA SELEX 2 aptamer clone (nucleic acid, DNA, backbone not given here, DNA SELEX 2 aptamer clone) DNA: CTACCTACGATCTGACTAGCTTGGTAGCGACTTTGTGGAGCTGCGGTTTGGTCGACATCAGCTTACTCTCATGTAGTTCC , state its recorded Screen Rabbit/No Protein.
1.41

Data request, read-out Screen Rabbit/No Protein, for AMX237.F9: DNA SELEX 2 aptamer clone (nucleic acid, DNA, backbone not given here, DNA SELEX 2 aptamer clone) DNA: CTACCTACGATCTGACTAGCTTGGTAGCGATTCTGTGGAGCTGCGGTTTGGTCGACGTCAGCTTACTCTCATGTAGTTCC
2.31
